test: AUC (infinity) in Sprague-Dawley rat at 10 mg/kg, po; assay type: ADME, organism-based; parameters: dose 10 mg/kg, route oral, time infinity; conditions: in vivo
readout_name: AUC(0-inf) (ng·h/mL)
Answers are plain numbers, in ng·h/mL.

Problem: State the recorded AUC(0-inf) for this entry: CC[C@H](Nc1nc(N)nc(N)c1C#N)c1nc2cccc(C#CCCCC(=O)N3CCOCC3)c2c(=O)n1-c1ccccc1
Solution: 958

###

Give measured IC50 for each item. Keep answers brief.
tested on: SU-DHL-6; assay: Antiproliferative activity against human SUDHL6 cells measured after 72 hrs by alamar blue assay; assay type: functional, cell-based; conditions: SU-DHL-6, 72 h
The answer should read as a number with its unit following.

// solved cases for IC50 follow
Problem: # query: IC50 | item N#Cc1c(N)ncnc1N1CC[C@H]1c1nc2cccc(C#CCCCC(=O)N3CCOCC3)c2c(=O)n1-c1ccccc1 | system: SU-DHL-6
Solution: 7320 nM

Problem: # query: IC50 | item CC(C)(C)N1CCN(C(=O)C#Cc2cccc3nc([C@@H]4CCCN4c4ncnc(N)c4C#N)n(-c4ccccc4)c(=O)c23)CC1 | system: SU-DHL-6
Solution: 216 nM

Problem: # query: IC50 | item CC(C)N1CCN(Cc2cnc(C#Cc3cccc4nc([C@@H]5CCCN5c5ncnc(N)c5C#N)n(-c5ccccc5)c(=O)c34)s2)CC1 | system: SU-DHL-6
Solution: 1150 nM

Problem: # query: IC50 | item CC(F)CN1CCN(CC#Cc2cccc3nc([C@@H]4CCCN4c4ncnc(N)c4C#N)n(-c4ccccc4)c(=O)c23)CC1 (some centres not stated) | system: SU-DHL-6
Solution: 1410 nM

Problem: # query: IC50 | item CC[C@H](Nc1ncnc2[nH]cnc12)c1nc2cccc(F)c2c(=O)n1-c1ccccc1 | system: SU-DHL-6
Solution: 118 nM

List IC50 for every entry below, keeping the order given.
1. CC[C@H](Nc1nc(N)nc(N)c1C#N)c1nc2cccc(C#CCCCC(=O)N3CCCC3)c2c(=O)n1-c1ccccc1
2. N#Cc1c(N)ncnc1N1CCC[C@H]1c1nc2cccc(C#CCN3C[C@@H]4C[C@H]3CN4)c2c(=O)n1-c1ccccc1

Solution:
["37.2 nM", "1260 nM"]
